- ASSAY REMARKS: folding enthalpy; higher = less favourable; fluorescence melt of hairpins on a sequencing array, two-state fit
- CONDITIONS: sodium 0.088 M
Each record's class is read off its folding enthalpy using these ranges: bin 1 (below -30 kcal/mol), bin 2 (-30 kcal/mol to below -20 kcal/mol), bin 3 (-20 kcal/mol or more)

ORDERED RESIDUES: GATCATGGAAACACGATC ((((.((....)).))))
CLASS: bin 2

ORDERED RESIDUES: GATCAGGGAGCTGATC ((((((....))))))
CLASS: bin 1

ORDERED RESIDUES: GATCCCAGCAGGGATC ((((((....))))))
CLASS: bin 1

ORDERED RESIDUES: GCTACCGGAAACGGTGGC ((.((((....)))).))
CLASS: bin 1

ORDERED RESIDUES: GCTCACGAAAGTGCAAGC ((((((....)))..)))
CLASS: bin 3

ORDERED RESIDUES: GATCCGTCAGCGGATC ((((((....))))))
CLASS: bin 1

ORDERED RESIDUES: GGGTTCGGAAACGGACCC ((((.((....)).))))
CLASS: bin 1

ORDERED RESIDUES: CGGCGCCGGAAACGGCCG (((..(((....))))))
CLASS: bin 3

ORDERED RESIDUES: GTACTGCGAAAGCATTAC (((.(((....))).)))
CLASS: bin 2

// provenance: the array DNA melting data of Ke et al. (doi:10.1101/2024.01.08.574731)
